biological target: Calpain-1 (Sus scrofa); test: In vitro inhibition of porcine mu-calpain.
This listing pairs compounds with measured pIC50.
The scale used: pIC50 is minus the common logarithm of the concentration in molar units.

Look over these answered cases.
input_smiles=CC(C)C[C@H](C=O)NC(=O)[C@@H](NS(=O)(=O)c1ccc2ccccc2c1)C(C)C recorded_metric=pIC50 result=8.00
input_smiles=CC(C)[C@H](NS(=O)(=O)c1ccc(Cl)cc1)C(=O)N[C@@H](C=O)Cc1c[nH]c2ccccc12 recorded_metric=pIC50 result=7.89

Consider the additional compound presented here.
Data point: Cc1ccc(S(=O)(=O)N[C@H](C(=O)N[C@@H](C=O)Cc2ccccc2)C(C)C)cc1 ; pIC50 = 7.74
